tested system: benzodiazepine receptor
method: Binding test to benzodiazepine receptor (inhibition of specific binding of tritium labeled diazepam)
test context: 2 nM tritium labeled diazepam, rat cerebral cortex, 0° C., 60 minutes; Ki calculated from IC50
assay metric: Ki
# do not omit the unit; it follows the number

Worked cases, Ki given:
O=c1c2c[nH]c3ccccc3c-2nn1-c1ccsc1 | 0.29 nM
Cc1ccc2c3nn(-c4ccc(C)s4)c(=O)c-3c[nH]c2c1 | 1.44 nM
Cc1cc(-n2nc3c4ccccc4[nH]cc-3c2=O)sc1C | 0.63 nM
Cc1ccc(-n2nc3c4ccccc4[nH]cc-3c2=O)s1 | 0.35 nM

Determine from records and report Ki for Cc1csc(-n2nc3c4ccccc4[nH]cc-3c2=O)c1 0.38 nM
